Please go through the items and note down their IC50.
Test system: MSTO-211H cells
test-description: Cell proliferation inhibition experiment (CellTiter-Glo)
Type: cell-based
run-parameters: Homo sapiens, 96 hours, read-out: Inhibitory activity of each compound on the proliferation of MSTO-211H cells (grades of IC50 values)

Summary line: CCC(=O)N1CCOc2c1cc(C(N)=O)c(-c1c(Cl)c(F)cc3c1C[C@](c1ccccc1)([C@@H]1CCCN1)O3)c2F (atropisomer, axis not shown) [Compound I-29] , MSTO-211H cells, reported IC50 = 200 to 500 nM

Summary line: Cn1ncc2c(c1=O)Oc1cc(C(N)=O)c(-c3c(Cl)c(F)cc4c3CC(c3ccccc3)(C3CCCN3)O4)c(F)c1O2 (stereo not drawn) [Compound 106] , MSTO-211H cells, reported IC50 = 200 to 500 nM

Summary line: CNC(=O)c1cc2c(c(F)c1-c1c(Cl)c(F)cc3c1C[C@](c1ccccc1)([C@@H]1CCCN1)O3)Oc1cnn(C)c(=O)c1O2 (atropisomer, axis not shown) [Compound 125] , MSTO-211H cells, reported IC50 = < 200 nM

====

Tested on: MSTO-211H cells
test-description: Cell proliferation inhibition experiment (CellTiter-Glo)
Type: cell-based
run-parameters: Homo sapiens, 96 hours, read-out: Inhibitory activity of each compound on the proliferation of MSTO-211H cells (grades of IC50 values)
pIC50: −log10 of the molar value.
Please go through the items and note down their pIC50.

Value of pIC50 reported for the molecule Cn1cc2c(n1)Oc1c(cc(C(N)=O)c(-c3c(Cl)c(F)cc4c3C[C@](c3ccccc3)([C@@H]3CCCN3)O4)c1F)O2 (atropisomer, axis not shown) [Compound 8] is > 6.70

Value of pIC50 reported for the molecule NC(=O)c1cc2c(c(F)c1-c1c(Cl)c(F)cc3c1C[C@](c1ccccc1)([C@@H]1CCCN1)O3)Oc1c(N)ncnc1O2 (atropisomer, axis not shown) [Compound 114] is 5.30 to 6.30

Value of pIC50 reported for the molecule [2H]C1([2H])CC[C@]([2H])([C@@]2(c3ccccc3)Cc3c(cc(F)c(Cl)c3-c3c(C(N)=O)cc4c(c3F)Oc3c(cnn(CC(F)F)c3=O)O4)O2)N1 (atropisomer, axis not shown) [Compound 152] is > 6.70

Value of pIC50 reported for the molecule NC(=O)c1cc2c(c(F)c1-c1c(Cl)c(F)cc3c1C[C@](c1ccccc1)([C@@H]1CCCN1)O3)Oc1cnncc1O2 (atropisomer, axis not shown) [Compound 67] is 6.30 to 6.70

Value of pIC50 reported for the molecule NC(=O)c1cc2c(c(F)c1-c1c(Cl)c(F)cc3c1C[C@](c1ccccc1)([C@@H]1CCCN1)O3)OCC21CCNCC1 (atropisomer, axis not shown) [Compound 44] is < 5.30

Value of pIC50 reported for the molecule CNC(=O)c1cc2c(c(F)c1-c1c(Cl)c(F)cc3c1CC(c1ccccc1)(C1CCCN1)O3)Oc1c(cnn(C)c1=O)O2 (stereo not drawn) [Compound 124] is > 6.70
